What LD50 was measured for each of the following?
Test: Acute toxicity in mice (i.p., Lichfield and Wilcoxon), with paralytic side effect
Format: in vivo, male Swiss mice
Conditions: mouse, in vivo, ip
Protocol: The acute toxicity of the compounds according to the invention was tested on male Swiss mice weighing 27 to 31 g. The tests were carried out on groups of six mice. Test compounds were administered intraperitoneally, as injectable solutions prepared with physiological saline solution and optionally one drop of Tween 80.

Take a look at these entries with their results.
INSERT INTO assay_data (molecule, reported) VALUES
  ('CCC1(O)CC2CN(CCc3c([nH]c4ccccc34)C(C(=O)OC)(c3cc4c(cc3OC)N(COC)C3C(O)(C(=O)OC)C(OC(C)=O)C5(CC)C=CCN6CCC43C65)C2)C1 (stereo not shown)', '~100 mg/kg'),
  ('CCC1(O)CC2CN(CCc3c([nH]c4ccccc34)C(C(=O)OC)(c3cc4c(cc3OC)N(COC3CCCCC3)C3C(O)(C(=O)OC)C(OC(C)=O)C5(CC)C=CCN6CCC43C65)C2)C1 (stereo not shown)', '~60 mg/kg'),
  ('CCCCCCCOCN1c2cc(OC)c(C3(C(=O)OC)CC4CN(CCc5c3[nH]c3ccccc53)CC(O)(CC)C4)cc2C23CCN4CC=CC(CC)(C(OC(C)=O)C(O)(C(=O)OC)C12)C43 (stereo not shown)', '~60 mg/kg');

May I ask what LD50 has been recorded for CCC1(O)CC2CN(CCc3c([nH]c4ccccc34)C(C(=O)OC)(c3cc4c(cc3OC)N(COCc3ccccc3)C3C(O)(C(=O)OC)C(OC(C)=O)C5(CC)C=CCN6CCC43C65)C2)C1 (stereo not shown) ? ~70 mg/kg

The measurements presented in this section are drawn from patent US4410459A.
